This collection of values is drawn from ChEMBL document CHEMBL1147467.

So I've got a bunch of molecules here, and I need their pIC50 values.
Molecular target: Plasminogen activator inhibitor 1 (Homo sapiens)
Experiment: Inhibitory activity against plasminogen activator inhibitor-1
Give bare numbers, as −log10 of the molar value.

Worked set:
CCCCC(CCn1oc(=O)[nH]c1=O)c1cccc(Oc2cccc(C)c2)c1 (stereo not drawn)    5.66
O=c1[nH]c(=O)n(C(CCc2ccc(OCc3cccc(Cl)c3)cc2)c2ccccc2)o1 (stereo not drawn)    6.17
CC(/C=C/c1ccc(OCc2cccc(C(F)(F)F)c2)cc1)n1oc(=O)[nH]c1=O (stereo not drawn)    5.24

Please go through the list and note pIC50 for each molecule.
1. CC(/C=C/c1ccc(OCc2ccc(Cl)c(Cl)c2)cc1)n1oc(=O)[nH]c1=O (stereo not drawn)
2. CC/C(=C\Cn1oc(=O)[nH]c1=O)c1ccc(OCc2cc(C(F)(F)F)cc(C(F)(F)F)c2)cc1
3. CCCC/C(=C\Cn1oc(=O)[nH]c1=O)c1cccc(Oc2cc(Cl)cc(Cl)c2)c1
4. O=c1[nH]c(=O)n(C(CCc2ccc(OCc3cc(C(F)(F)F)cc(C(F)(F)F)c3)cc2)c2ccccc2)o1 (stereo not drawn)
5. O=c1[nH]c(=O)n(C/C=C/c2ccc(OCc3cc(C(F)(F)F)cc(C(F)(F)F)c3)cc2)o1

RESULT:
5.21
5.05
5.72
6.41
4.83

====

For each entry below, report its log10(IC50) value.
Molecular target: Plasminogen activator inhibitor 1 (Homo sapiens, UniProt P05121)
Sequence (P05121 whole entry): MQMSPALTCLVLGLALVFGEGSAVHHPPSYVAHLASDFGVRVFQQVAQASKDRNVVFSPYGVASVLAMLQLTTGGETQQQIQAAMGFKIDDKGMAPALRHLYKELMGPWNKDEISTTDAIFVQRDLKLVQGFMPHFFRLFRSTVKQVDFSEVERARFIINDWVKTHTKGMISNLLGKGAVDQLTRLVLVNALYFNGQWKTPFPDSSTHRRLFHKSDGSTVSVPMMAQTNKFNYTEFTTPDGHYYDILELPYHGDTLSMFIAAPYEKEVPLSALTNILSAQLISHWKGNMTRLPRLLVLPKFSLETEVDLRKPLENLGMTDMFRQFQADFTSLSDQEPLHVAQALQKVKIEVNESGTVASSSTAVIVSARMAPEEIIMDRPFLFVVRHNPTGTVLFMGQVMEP
Assay: In vitro concentration required for inhibition of tissue type plasminogen activator by plasminogen activator inhibitor-1 at concentration 25 um
# values: log10(IC50), units µM

Give measured log10(IC50) for every item shown.
1. COc1cc(/C=C/Cn2oc(=O)[nH]c2=O)ccc1OCc1ccc(Cl)c(Cl)c1
2. C/C(=C\Cn1oc(=O)[nH]c1=O)c1cccc(COc2cc(C(F)(F)F)cc(C(F)(F)F)c2)c1
3. C/C(=C/Cn1oc(=O)[nH]c1=O)c1cccc(COc2cc(C(F)(F)F)cc(C(F)(F)F)c2)c1
4. C/C(=C\Cn1oc(=O)[nH]c1=O)c1cccc(OCc2cc(C(F)(F)F)cc(C(F)(F)F)c2)c1

RESULT:
0.51
0.72
0.86
0.97

====

Assign pIC50 to each entry below.
Biological target: Plasminogen activator inhibitor 1 (Homo sapiens)
Test: In vitro concentration required for inhibition of tissue type plasminogen activator by plasminogen activator inhibitor-1 at concentration 25 um
Answers are plain numbers, as −log10 of the molar value.

O=c1[nH]c(=O)n(C/C=C/c2cc(OCc3ccc(Cl)c(Cl)c3)ccc2Cl)o1    5.42

Hi! Can you tell me pIC50 for each of these compounds?
1. O=c1[nH]c(=O)n(C/C=C/c2cc(OCc3ccc(Cl)cc3)cc(OCc3ccc(Cl)cc3)c2)o1
2. C/C(=C\Cn1oc(=O)[nH]c1=O)c1cccc(OCc2ccccn2)c1
3. C/C(=C\Cn1oc(=O)[nH]c1=O)c1cccc(OCc2ccccc2-c2ccccc2)c1
4. O=c1[nH]c(=O)n(C/C=C/c2cc(OCc3ccc(C(F)(F)F)cc3)cc(OCc3ccc(C(F)(F)F)cc3)c2)o1

RESULT:
1. 5.68
2. 4.62
3. 5.64
4. 5.60
